Biological target: HLA-A*69:01
Test: IEDB peptide-MHC binding, purified MHC/direct/fluorescence; filed as Kd, often an IC50 or EC50 that approximates it; bounds were set here for any values at or beyond the usual limits of such assays
Details: source organism: Vibrio vulnificus YJ016
pKd: −log10 of the molar value.
Quantity: pKd

Entry DAYGFHNYK : reported pKd = ?
≤ 4.70

###

Answer each item with its documented Kd.
Target: HLA-B*35:01
Assay: IEDB peptide-MHC binding, purified MHC/competitive/radioactivity; filed as Kd, often an IC50 or EC50 that approximates it; bounds were set here for any values at or beyond the usual limits of such assays
Settings: source organism: Vaccinia virus WR

Entry IPEISSNDNA : reported Kd = ?
≥ 69.9 µM

What do you have for CPQKKKSQA ?
≥ 77.4 µM

What do you have for EPSGNNYHI ?
≥ 44.3 µM

What do you have for LPNVQFVDI ?
0.234 µM

What do you have for APKQVAGTGV ?
≥ 69.9 µM

What do you have for DPPIPYSRV ?
≥ 53.4 µM

###

Biological target: HLA-B*27:05
Assay: IEDB peptide-MHC binding, purified MHC/direct/fluorescence; filed as Kd, often an IC50 or EC50 that approximates it; bounds were set here for any values at or beyond the usual limits of such assays
Settings: source organism: Escherichia coli O157:H7
Quantity: Kd

Entry ITIPIGLYL : reported Kd = ?
≥ 20 µM

What do you have for RPPRRGDKF ?
≥ 20 µM

What do you have for RGRGVAIHR ?
≥ 20 µM

###

Target: HLA-B*44:03
Assay: IEDB peptide-MHC binding, purified MHC/competitive/radioactivity; filed as Kd, often an IC50 or EC50 that approximates it; bounds were set here for any values at or beyond the usual limits of such assays
Conditions: source organism: Dengue virus 3 Martinique/1243/1999
Answer each item with its documented Kd.
Report the figure in nM without appending any unit label.

Entry AEMEEALKG : reported Kd = ?
5.34

What do you have for KEISNMLSI ?
21.8

###

Biological target: HLA-B*44:02
Experiment: IEDB peptide-MHC binding, purified MHC/direct/fluorescence; filed as Kd, often an IC50 or EC50 that approximates it; bounds were set here for any values at or beyond the usual limits of such assays
Settings: source organism: Brucella melitensis
Answer each item with its documented Kd.

Entry CTDPPLLSV : reported Kd = ?
≥ 20 µM

What do you have for ALFEDYPGC ?
≥ 20 µM

###

Target: HLA-A*26:01
Test: IEDB peptide-MHC binding, purified MHC/competitive/fluorescence; filed as Kd, often an IC50 or EC50 that approximates it; bounds were set here for any values at or beyond the usual limits of such assays
Details: source organism: Bacillus cereus G9241
Quantity: pKd
Remember the convention: pKd equals -log10 of concentration in molar.

Entry ELSQSMFHY : reported pKd = ?
6.60

###

Target: HLA-A*02:01
Assay: IEDB peptide-MHC binding, purified MHC/direct/fluorescence; filed as Kd, often an IC50 or EC50 that approximates it; bounds were set here for any values at or beyond the usual limits of such assays
Conditions: source organism: Brucella melitensis
Answer each item with its documented Kd.
Report the figure in nM without appending any unit label.

Entry ALFEDYPGC : reported Kd = ?
354

What do you have for CTDPPLLSV ?
526

###

Biological target: HLA-A*02:06
Test: IEDB peptide-MHC binding, purified MHC/competitive/radioactivity; filed as Kd, often an IC50 or EC50 that approximates it; bounds were set here for any values at or beyond the usual limits of such assays
Details: source organism: Mammarenavirus brazilense
pKd: −log10 of the molar value.
Quantity: pKd

Entry LRYFIMAYV : reported pKd = ?
≤ 4.70
